- Method summary: Drug metabolism in iv dosed drug naive Kunming mouse assessed dose of propofol released from prodrugs dosed at 2 times anesthetic ED50
- Assay type: ADME, organism-based
- Condition set: in vivo
Readings of Drug metabolism for the listed compounds
Numbers only here, please. The scale is mg/kg.

CC(C)c1cccc(C(C)C)c1OC(=O)COC(=O)CN1CCCC1.Cl | 23.4
CC(C)c1cccc(C(C)C)c1OC(=O)COC(=O)CN(C)C.Cl | 40.1
CC(C)c1cccc(C(C)C)c1OC(=O)COC(=O)[C@H](C)N.Cl | 21.2
CC(C)c1cccc(C(C)C)c1OC(=O)COC(=O)CCC(=O)[O-].[Na+] | 75.7

// switching to the query compound
Input: Bench note: what Drug metabolism did `CNCC(=O)OCC(=O)Oc1c(C(C)C)cccc1C(C)C.Cl` show?
Output: 30.7

Hello, the source for this data is ChEMBL document CHEMBL4627404, in case you need it.
